biological target: G-protein coupled receptor 68 (Homo sapiens); assay: Positive allosteric modulation of human GPR68 expressed in HEK293T cells co-expressing Gs assessed as stimulation of proton-mediated cAMP production by measuring efficacy cooperativity in HBSS buffer containing pH 6.8 to 8.2 HEPES/pH 8.3 to 8.6 TAPS measured after 20 to 30 mins in presence of PDE inhibitor Ro 20-1724 by luciferase-glo reporter gene assay; type: functional, cell-based
Measured property: log(activity)

1) Nc1nc(NCCCc2ccccc2)nc(-c2c(F)cccc2CO)n1 : 0.02
2) Nc1nc(NCc2ccccc2)nc(-c2cc(F)ccc2CO)n1 : 0.2
3) COc1ccccc1CNc1nc(N)nc(-c2c(F)cccc2CO)n1 : -0.12
4) Nc1nc(NCc2ccc(F)cc2)nc(-c2c(F)cccc2CO)n1 : 0.09
5) Nc1nc(NCc2ccccc2)nc(-c2c(Cl)cccc2CO)n1 : -0.12

Challenge: # input molecule: `Nc1nc(NCc2ccc(OC3CC3)cc2)nc(-c2ccccc2CO)n1` ; wanted: its log(activity)
Response given: 0.04

Challenge: # input molecule: `Nc1nc(NCCCCc2ccccc2)nc(-c2cc(Cl)ccc2CO)n1` ; wanted: its log(activity)
Response given: 0.06

Challenge: # input molecule: `Nc1nc(NCCCc2ccccc2)nc(-c2cc(Cl)ccc2CO)n1` ; wanted: its log(activity)
Response given: 0.01

Challenge: # input molecule: `Nc1nc(NCc2ccc(C(F)(F)F)cc2)nc(-c2ccccc2CO)n1` ; wanted: its log(activity)
Response given: 0.3

Challenge: # input molecule: `Nc1nc(NCCc2ccc(Oc3ccccc3)cc2)nc(-c2cc(Cl)ccc2CO)n1` ; wanted: its log(activity)
Response given: -0.04

Cited source for all entries: ChEMBL document CHEMBL4406806
